Biological target: PRMT5 (Homo sapiens)
Construct: purchased Viva (custom protein)
Assay: PRMT5 biochemical IC50 assay with SAM as cofactor
Conditions: PRMT5, SAM as cofactor; read-out: SAM IC50
# key: entry, value: IC50

Compound: Cc1cc(NC(=O)C(=O)N2C[C@@H](C)CC[C@@H]2c2cccc3[nH]ncc23)cnc1N (single isomer, unassigned)
IC50: > 500 nM
//
Compound: CC[C@@H]1CC[C@@H](c2ccccc2)N(C(=O)C(=O)Nc2cncc(C)c2)C1 (single isomer, unassigned)
IC50: > 500 nM
//
Compound: C[C@@H]1CC[C@@H](c2ccc(F)nc2)N(C(=O)C(=O)Nc2cncc(C(N)=O)c2)C1 (racemic)
IC50: 50 to 500 nM
//
Compound: C[C@@H]1CN(C(=O)C(=O)Nc2cncc(C(N)=O)c2)C[C@@H]2CCCC[C@@H]21 (racemic)
IC50: 50 to 500 nM
//
Compound: C[C@@H]1CC[C@@H](c2ccc3nccn3c2)N(C(=O)C(=O)Nc2cncc(C(N)=O)c2)C1 (racemic)
IC50: 50 to 500 nM

Report IC50 for C[C@@H]1CC[C@@H](c2ccc(C(F)(F)F)cc2)N(C(=O)C(=O)Nc2cncc(C(N)=O)c2)C1 (racemic) [Compound 251] tested on PRMT5 (Homo sapiens).
50 to 500 nM

What measured IC50 is associated with Cc1cccc([C@H]2CC[C@H](C)CN2C(=O)C(=O)Nc2cncc(C(N)=O)c2)c1 (single isomer, unassigned) on PRMT5 (Homo sapiens)?
50 to 500 nM

Please tell me: IC50 of Cc1cncc(NC(=O)C(=O)N2CCCCC2c2cccc(N(C)C)c2)c1 (centres unmarked) , system PRMT5 (Homo sapiens)?
> 500 nM

====

Catalogue of pIC50 values
Biological target: PRMT5 (Homo sapiens, UniProt O14744)
Construct: purchased Viva (custom protein)
Sequence (O14744 whole entry): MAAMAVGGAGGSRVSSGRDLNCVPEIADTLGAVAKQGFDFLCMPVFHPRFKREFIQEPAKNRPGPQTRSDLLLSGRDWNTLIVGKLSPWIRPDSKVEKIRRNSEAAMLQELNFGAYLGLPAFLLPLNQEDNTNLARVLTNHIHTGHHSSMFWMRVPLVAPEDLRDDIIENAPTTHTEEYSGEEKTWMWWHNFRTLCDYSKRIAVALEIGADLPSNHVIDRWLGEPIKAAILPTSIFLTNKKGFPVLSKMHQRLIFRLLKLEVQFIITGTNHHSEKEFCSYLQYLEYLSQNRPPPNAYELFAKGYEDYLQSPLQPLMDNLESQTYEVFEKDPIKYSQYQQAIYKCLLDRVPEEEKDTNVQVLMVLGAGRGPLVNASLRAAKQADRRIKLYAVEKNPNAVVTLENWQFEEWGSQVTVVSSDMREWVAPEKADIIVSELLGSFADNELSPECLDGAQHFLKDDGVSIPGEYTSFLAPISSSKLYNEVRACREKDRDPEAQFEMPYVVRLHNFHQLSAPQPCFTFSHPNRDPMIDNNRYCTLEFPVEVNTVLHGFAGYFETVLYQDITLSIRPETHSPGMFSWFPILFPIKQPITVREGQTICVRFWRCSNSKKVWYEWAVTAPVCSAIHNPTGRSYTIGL
Sequence (Q9BQA1 whole entry partner): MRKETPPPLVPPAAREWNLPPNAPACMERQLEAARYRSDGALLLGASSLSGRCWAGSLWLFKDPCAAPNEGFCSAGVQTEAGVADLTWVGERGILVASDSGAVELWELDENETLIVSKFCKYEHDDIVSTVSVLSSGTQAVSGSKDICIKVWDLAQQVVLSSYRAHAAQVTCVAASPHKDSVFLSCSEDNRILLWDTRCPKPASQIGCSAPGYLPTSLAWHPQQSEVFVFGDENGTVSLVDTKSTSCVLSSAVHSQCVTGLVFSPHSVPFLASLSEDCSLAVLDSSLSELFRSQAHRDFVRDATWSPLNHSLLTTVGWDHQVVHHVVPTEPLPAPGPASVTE
Test: PRMT5 biochemical IC50 assay with no cofactor
Details: PRMT5, no cofactor; read-out: No Cofactor/rel IC50
pIC50: −log10 of the molar value.

Compound: Cc1nc2cc([C@@H]3CC[C@@H](C)CN3C(=O)C(=O)Nc3cncc(C(N)=O)c3)ccc2s1 (single isomer, unassigned)
pIC50: > 7.30

Compound: CCc1cc(NC(=O)C(=O)N2C[C@H](C)C(F)(F)C[C@H]2c2ccc(F)c(F)c2)cnc1N (single isomer, unassigned)
pIC50: < 6.30

Query compound follows.
Look up pIC50: Cc1cc(NC(=O)C(=O)N2C[C@H](C)CC[C@H]2c2ccc(C(F)(F)F)cc2)cnc1N (single isomer, unassigned)
6.30 to 7.30

====

Molecular target: PRMT5 (Homo sapiens)
Construct: purchased Viva (custom protein)
Assay: PRMT5 biochemical IC50 assay with no cofactor
Conditions: PRMT5, no cofactor; read-out: No Cofactor/ rel IC50
pIC50: −log10 of the molar value.
Endpoint name: pIC50

Sample answers from the record:
Compound: Cc1cc(C)n(-c2ccc([C@@H]3CC[C@@H](C)CN3C(=O)C(=O)Nc3cncc(C(N)=O)c3)cc2)n1 (racemic) [Compound 157]
pIC50: 6.30 to 7.30
//
Compound: CCc1cc(NC(=O)C(=O)N2C[C@@H](C)CC[C@@H]2c2ccc3nn([C@H]4CCCN(C)C4)cc3c2)cnc1N (single isomer, unassigned) [Compound 1271]
pIC50: > 7.30
//
Compound: C[C@@H]1CC[C@@H](c2ccc3sc(CCN(C)C)nc3c2)N(C(=O)C(=O)Nc2cncc(C(N)=O)c2)C1 (single isomer, unassigned) [Compound 1254]
pIC50: > 7.30
//
Compound: Cc1cc(C)n(-c2cccc([C@@H]3CC[C@@H](C)CN3C(=O)C(=O)Nc3cncc(C(N)=O)c3)c2)n1 (racemic) [Compound 153]
pIC50: 6.30 to 7.30
//
Compound: CCc1cc(NC(=O)C(=O)N2C[C@@H](C)CC[C@@H]2c2ccc3sc([C@@H](C)CN(C)C)nc3c2)cnc1N [Compound 1324]
pIC50: > 7.30

Can you share its pIC50? I mean this compound: CCc1cc(NC(=O)C(=O)N2C[C@@H](C)CC[C@@H]2c2cccc(OC[C@@H](C)N(C)C)c2)cnc1N [Compound 1290]
> 7.30

# query: pIC50 of entry Cc1cncc(NC(=O)C(=O)N2C[C@H](C)CC[C@H]2c2cccs2)c1 (single isomer, unassigned) [Compound 68]
6.30 to 7.30

Report pIC50 for COc1ncc(NC(=O)C(=O)N2C[C@@H](C)CC[C@@H]2c2ccc3sc(CCN(C)C)nc3c2)cc1C(N)=O (racemic) [Compound 1281] please.
6.30 to 7.30

FYI, the data here is from patent US11999727B2.
